pIC50: −log10 of the molar value.
Below are pIC50 values measured for Cytochrome P450 2D6 (Homo sapiens, UniProt P10635).

// worked examples, pIC50 included
                                   compound                     target_or_test_system  result_value
0  C[C@@H]1CCCN1CCCOc1ccc(C2=NNC(=O)CC2)cc1  Cytochrome P450 2D6 (Homo sapiens, UniProt P10635)        < 4.96
1  CC1CC(=O)NN=C1c1ccc(OCCCN2CCC[C@H]2C)cc1 (single isomer, unassigned; isomer 2)  Cytochrome P450 2D6 (Homo sapiens, UniProt P10635)        < 4.52

Query: For the compound `C[C@@H]1CCCN1CCCOc1ccc(C2=NNC(=O)C(C)(C)C2)cc1` , what pIC50 is on record?
Result: < 4.52
